# System: crabgrass
# measurement description: Test B pre/postemergence crabgrass
# Format: in vivo, Digitaria sanguinalis
# particulars: Preemergence, Rate 62 g/ha; scale of 0 to 10 where 0 is no effect and 10 is complete control
Provide the recorded Plant response rating, Crabgrass for the entries that follow.
// return a plain number; no unit text

// query Fill blank: measured Plant response rating, Crabgrass of the compound CC(C)N(C(=O)n1oc(=O)n(CC2=CCCN(C)C2)c1=O)c1ccccc1 [Compound 497] is ____.
// result 0

// query Fill blank: measured Plant response rating, Crabgrass of the compound CC[Si](C)(C)Cn1c(=O)on(C(=O)N(c2ccc(F)cc2)C(C)C)c1=O [Compound 459] is ____.
// result 5

// query Fill blank: measured Plant response rating, Crabgrass of the compound CC(C)N(C(=O)n1oc(=O)n(CCC2OCCCO2)c1=O)c1ccc(F)cc1F [Compound 502] is ____.
// result 10

// query Fill blank: measured Plant response rating, Crabgrass of the compound CC(C)N(C(=O)n1oc(=O)n(COCC[Si](C)(C)C)c1=O)c1ccc(Cl)cc1 [Compound 467] is ____.
// result 5

----------
# Tested on: smallflower flatsedge
# measurement description: Test B flood test smallflower flatsedge
# Format: in vivo, Cyperus difformis
# particulars: Rate 250 g/ha, Postemergence (flood test); scale 0 to 10, 0 is no effect, 10 is complete control
measured attribute: Plant response rating, S. Flatsedge
// return a plain number; no unit text

// query Fill blank: measured Plant response rating, S. Flatsedge of the molecule "CC(C)N(C(=O)n1oc(=O)n(N(C)c2ccccc2)c1=O)c1ccc(F)cc1" is ____.
// result 0

// query Fill blank: measured Plant response rating, S. Flatsedge of the molecule "CN(C(=O)n1oc(=O)n(Cc2ccccc2)c1=O)c1ccccc1" is ____.
// result 0

// query Fill blank: measured Plant response rating, S. Flatsedge of the molecule "COc1ccccc1Cn1c(=O)on(C(=O)N(c2ccc(F)cc2)C(C)C)c1=O" is ____.
// result 2

// query Fill blank: measured Plant response rating, S. Flatsedge of the molecule "CC(C)N(C(=O)n1oc(=O)n(Cc2ccccc2)c1=O)c1ccccc1" is ____.
// result 0

----------
# Tested on: blackgrass
# measurement description: Test B pre/postemergence blackgrass
# Assay type: in vivo, Alopecurus myosuroides
# particulars: Preemergence, Rate 500 g/ha; scale of 0 to 10 where 0 is no effect and 10 is complete control
measured attribute: Blackgrass plant response rating
// return a plain number; no unit text

// query Fill blank: measured Blackgrass plant response rating of the molecule CCOC(=O)CC(C(=O)OCC)n1c(=O)on(C(=O)N(c2ccc(F)cc2)C(C)C)c1=O (stereo not drawn) [Compound 615] is ____.
// result 4

// query Fill blank: measured Blackgrass plant response rating of the molecule CCCCn1c(=O)on(C(=O)N(c2ccccc2)C(C)C)c1=O [Compound 556] is ____.
// result 10

// query Fill blank: measured Blackgrass plant response rating of the molecule CC(C)N(C(=O)n1oc(=O)n(CC2=CCCCC2)c1=O)c1ccccc1 [Compound 496] is ____.
// result 2

// query Fill blank: measured Blackgrass plant response rating of the molecule COCCOCn1c(=O)on(C(=O)N(c2ccc(F)cc2F)C(C)C)c1=O [Compound 505] is ____.
// result 6

// query Fill blank: measured Blackgrass plant response rating of the molecule C=CCn1c(=O)on(C(=O)N(c2c(C)cccc2C)C(C)COC)c1=O (stereo not drawn) [Compound 600] is ____.
// result 0

// query Fill blank: measured Blackgrass plant response rating of the molecule CC(C)N(C(=O)n1oc(=O)n(CCC(F)(F)F)c1=O)c1ccc(Cl)cc1 [Compound 554] is ____.
// result 7

// query Fill blank: measured Blackgrass plant response rating of the molecule CC(C)N(C(=O)n1oc(=O)n(C2CCCCCC2)c1=O)c1ccc(F)cc1 [Compound 340] is ____.
// result 8

// query Fill blank: measured Blackgrass plant response rating of the molecule CCOC(=O)C(C)N(C(=O)n1oc(=O)n(C(C)C)c1=O)c1ccc(F)cc1 (stereo not drawn) [Compound 302] is ____.
// result 5

// query Fill blank: measured Blackgrass plant response rating of the molecule CC(C)N(C(=O)n1oc(=O)n(C2CC2)c1=O)c1ccc(F)cc1F [Compound 299] is ____.
// result 10

----------
# System: morningglory
# measurement description: Test B pre/postemergence morningglory
# Type: in vivo, Ipomoea hederacea
# particulars: Rate 125 g/ha, Postemergence; scale of 0 to 10 where 0 is no effect and 10 is complete control
measured attribute: Morningglory plant response rating
// return a plain number; no unit text

// query Fill blank: measured Morningglory plant response rating of the compound "CCN(C(=O)n1oc(=O)n(N(C)C)c1=O)C1CCCCC1" is ____.
// result 0

// query Fill blank: measured Morningglory plant response rating of the compound "CC(=O)OCn1c(=O)on(C(=O)N(c2ccc(F)cc2)C(C)C)c1=O" is ____.
// result 1

// query Fill blank: measured Morningglory plant response rating of the compound "CC(Cl)=CCn1c(=O)on(C(=O)N(c2ccc(F)cc2)C(C)C)c1=O" is ____.
// result 5

// query Fill blank: measured Morningglory plant response rating of the compound "CC(C)N(C(=O)n1oc(=O)n(CC(C)(C)C)c1=O)c1ccccc1" is ____.
// result 6

----------
# Tested on: giant foxtail
# measurement description: Test B pre/postemergence giant foxtail
# Assay type: in vivo, Setaria faberii
# particulars: Preemergence, Rate 62 g/ha; scale 0 to 10 (0 no effect, 10 complete control)
measured attribute: Giant foxtail plant response rating
// return a plain number; no unit text

// query Fill blank: measured Giant foxtail plant response rating of the compound "Cc1ccc(N(C(=O)n2oc(=O)n(C(C)C)c2=O)C(C)C)cc1" is ____.
// result 8

// query Fill blank: measured Giant foxtail plant response rating of the compound "Cc1cccc(C(C)C)c1-n1c(=O)on(C(=O)N(c2ccccc2)C(C)C)c1=O" is ____.
// result 4

// query Fill blank: measured Giant foxtail plant response rating of the compound "Cc1ccccc1-n1c(=O)on(C(=O)N(Cc2ccccc2)C(C)C)c1=O" is ____.
// result 0

// query Fill blank: measured Giant foxtail plant response rating of the compound "COCn1c(=O)on(C(=O)N(c2ccccc2)C(C)C)c1=O" is ____.
// result 4

// query Fill blank: measured Giant foxtail plant response rating of the compound "CCCCCCn1c(=O)on(C(=O)N(c2ccccc2)C(C)C)c1=O" is ____.
// result 8

// query Fill blank: measured Giant foxtail plant response rating of the compound "CC(C)N(C(=O)n1oc(=O)n(C(C)(C)C)c1=O)c1ccccc1" is ____.
// result 7

// query Fill blank: measured Giant foxtail plant response rating of the compound "COC(=O)CCCn1c(=O)on(C(=O)N(c2ccc(Cl)cc2)C(C)C)c1=O" is ____.
// result 3

----------
Provide the recorded Bedstraw plant response rating for the entries that follow.
# Test system: bedstraw
# measurement description: Test B pre/postemergence bedstraw
# Format: in vivo, Galium aparine
# particulars: Preemergence, Rate 250 g/ha; scale 0 to 10, 0 is no effect, 10 is complete control

// query Fill blank: measured Bedstraw plant response rating of the compound "CC(C)N(C(=O)n1oc(=O)n([C@@H](C)c2ccccc2)c1=O)c1ccccc1" is ____.
// result 0

// query Fill blank: measured Bedstraw plant response rating of the compound "CCN(Cc1ccncc1)C(=O)n1oc(=O)n(C(C)C)c1=O" is ____.
// result 0

// query Fill blank: measured Bedstraw plant response rating of the compound CC(C)N(C(=O)n1oc(=O)n(C(C)c2ccccc2)c1=O)c1ccc(Cl)cc1 (stereo not shown) is ____.
// result 0

// query Fill blank: measured Bedstraw plant response rating of the compound "Cc1noc(C)c1Cn1c(=O)on(C(=O)N(c2ccc(F)cc2F)C(C)C)c1=O" is ____.
// result 0

// query Fill blank: measured Bedstraw plant response rating of the compound "CC(C)N(C(=O)n1oc(=O)[nH]c1=O)c1ccc(F)cc1" is ____.
// result 0

// query Fill blank: measured Bedstraw plant response rating of the compound "CC(C)N(C(=O)n1oc(=O)n(COCC[Si](C)(C)C)c1=O)c1ccc(Cl)cc1" is ____.
// result 0

// query Fill blank: measured Bedstraw plant response rating of the compound "CN(C(=O)n1oc(=O)n(Cc2ccccc2)c1=O)c1ccccc1" is ____.
// result 0

// query Fill blank: measured Bedstraw plant response rating of the compound "CCN(C(=O)n1oc(=O)n(N(C)c2ccccc2)c1=O)C1CCCCC1" is ____.
// result 0

// query Fill blank: measured Bedstraw plant response rating of the compound "C=CCn1c(=O)on(C(=O)N(c2ccc(F)cc2)C(C)C)c1=O" is ____.
// result 10

// query Fill blank: measured Bedstraw plant response rating of the compound "COCCOCn1c(=O)on(C(=O)N(c2ccc(F)cc2F)C(C)C)c1=O" is ____.
// result 8
